Test system: Klebsiella pneumoniae
Assay: Antimicrobial activity against Klebsiella pneumoniae after 24 hrs by standard microtiter dilution method
Format: functional
Square brackets hold non-standard residues; d marks the D form. Peptide text beside a SMILES is read from it.
Readout Type: MIC (µg/mL)
// units = µg/mL; emit number, no label

compound="CC(C)C[C@@H]1NC(=O)[C@H](CCCCN)NC(=O)[C@H](C(C)C)NC(=O)[C@@H]2CCCN2C(=O)[C@@H](Cc2ccc(O)cc2)NC(=O)[C@H](CC(C)C)NC(=O)[C@H](CCCCN)NC(=O)[C@H](C(C)C)NC(=O)[C@H](CCCCN)NC(=O)[C@@H]2CCCN2C(=O)[C@@H](Cc2ccc(O)cc2)NC(=O)[C@H](CCCCN)NC1=O (cyclo(KLK[dY]PKVKL[dY]PV))" readout_type=MIC result_unit=µg/mL endpoint_value=64
compound="CC(C)C[C@@H]1NC(=O)[C@H](CCCCN)NC(=O)[C@H](C(C)C)NC(=O)[C@@H]2CCCN2C(=O)[C@@H](Cc2ccc(O)cc2)NC(=O)[C@H](CC(C)C)NC(=O)[C@H](CCCCN)NC(=O)[C@H](C(C)C)NC(=O)[C@H](CCCCN)NC(=O)[C@H](CC(C)C)NC(=O)[C@@H]2CCCN2C(=O)[C@@H](Cc2ccc(O)cc2)NC(=O)[C@H](C(C)C)NC(=O)[C@H](CCCCN)NC1=O (cyclo(KLKV[dY]PLKVKL[dY]PV))" readout_type=MIC result_unit=µg/mL endpoint_value=128

Kindly note the recorded MIC for CC(C)C[C@@H]1NC(=O)[C@H](CCCCN)NC(=O)[C@H](C(C)C)NC(=O)[C@@H]2CCCN2C(=O)[C@@H](Cc2ccc(O)cc2)NC(=O)[C@H](CC(C)C)NC(=O)[C@H](CCCCN)NC(=O)[C@H](C(C)C)NC(=O)[C@H](CCCCN)NC(=O)[C@H](CC(C)C)NC(=O)[C@@H]2CCCN2C(=O)[C@@H](Cc2ccc(O)cc2)NC(=O)[C@H](CCCCN)NC1=O (cyclo(VKLK[dY]PLKVKL[dY]P)) , which is 8

---

Consider the following compounds and their measured MIC readings.
System: Klebsiella pneumoniae
Assay: Antimicrobial activity against Klebsiella pneumoniae after 24 hrs by standard microtiter dilution method
Type: functional
Square brackets hold non-standard residues; d marks the D form. Peptide text beside a SMILES is read from it. Orn = NCCC[C@H](N)C(=O)O
// units = µg/mL; emit number, no label

compound="CC(C)C[C@@H]1NC(=O)[C@H](CCCN)NC(=O)[C@H](C(C)C)NC(=O)[C@@H]2CCCN2C(=O)[C@@H](Cc2ccccc2)NC(=O)[C@H](CC(C)C)NC(=O)[C@H](CCCN)NC(=O)[C@H](C(C)C)NC(=O)[C@@H]2CCCN2C(=O)[C@@H](Cc2ccccc2)NC1=O [GRAMICIDIN S] (cyclo(L[dF]PV[Orn]L[dF]PV[Orn]))" assayed_target="Klebsiella pneumoniae" readout_type=MIC result_unit=µg/mL endpoint_value=16
compound="CC(C)C[C@@H]1NC(=O)[C@H](CCCCN)NC(=O)[C@H](C(C)C)NC(=O)[C@@H]2CCCN2C(=O)[C@@H](Cc2ccc(O)cc2)NC(=O)[C@H](CC(C)C)NC(=O)[C@H](CCCCN)NC(=O)[C@H](C(C)C)NC(=O)[C@@H]2CCCN2C(=O)[C@@H](Cc2ccc(O)cc2)NC1=O (cyclo(KL[dY]PVKL[dY]PV))" assayed_target="Klebsiella pneumoniae" readout_type=MIC result_unit=µg/mL endpoint_value=32
compound=CC(C)C[C@@H]1NC(=O)[C@H](CCCCN)NC(=O)[C@H](C(C)C)NC(=O)[C@@H]2CCCN2C(=O)[C@@H](Cc2ccc(O)cc2)NC(=O)[C@H](CC(C)C)NC(=O)[C@H](CCCCN)NC(=O)[C@H](C(C)C)NC(=O)[C@H](CCCCN)NC(=O)[C@@H]2CCCN2C(=O)[C@@H](Cc2ccc(O)cc2)NC1=O assayed_target="Klebsiella pneumoniae" readout_type=MIC result_unit=µg/mL endpoint_value=32
compound="CC(C)C[C@@H]1NC(=O)[C@H](CCCCN)NC(=O)[C@H](C(C)C)NC(=O)[C@H](CCCCN)NC(=O)[C@@H]2CCCN2C(=O)[C@@H](Cc2ccc(O)cc2)NC(=O)[C@H](CCCCN)NC(=O)[C@H](CCCCN)NC(=O)[C@H](C(C)C)NC(=O)[C@@H]2CCCN2C(=O)[C@@H](Cc2ccc(O)cc2)NC1=O (cyclo(VKK[dY]PKVKL[dY]P))" assayed_target="Klebsiella pneumoniae" readout_type=MIC result_unit=µg/mL endpoint_value=256
compound="CC(C)C[C@@H]1NC(=O)[C@H](CCCCN)NC(=O)[C@H](C(C)C)NC(=O)[C@@H]2CCCN2C(=O)[C@@H](Cc2ccc(O)cc2)NC(=O)[C@H](CC(C)C)NC(=O)[C@H](CCCCN)NC(=O)[C@H](C(C)C)NC(=O)[C@H](CCCCN)NC(=O)[C@H](CC(C)C)NC(=O)[C@H](CCCCN)NC(=O)[C@@H]2CCCN2C(=O)[C@@H](Cc2ccc(O)cc2)NC(=O)[C@H](CCCCN)NC(=O)[C@H](CCCCN)NC1=O (cyclo(VKLKK[dY]PKLKVKL[dY]P))" assayed_target="Klebsiella pneumoniae" readout_type=MIC result_unit=µg/mL endpoint_value=8
compound="CC(C)C[C@@H]1NC(=O)[C@H](CCCCN)NC(=O)[C@H](C(C)C)NC(=O)[C@@H]2CCCN2C(=O)[C@@H](Cc2ccc(O)cc2)NC(=O)[C@H](CC(C)C)NC(=O)[C@H](CCCCN)NC(=O)[C@H](C(C)C)NC(=O)[C@@H]2CCCN2C(=O)[C@@H](Cc2ccc(O)cc2)NC(=O)[C@H](CCCCN)NC1=O (cyclo(VKLK[dY]PVKL[dY]P))" assayed_target="Klebsiella pneumoniae" readout_type=MIC result_unit=µg/mL endpoint_value=64

Now turn to the next compound.
Kindly note the recorded MIC for CC(C)C[C@@H]1NC(=O)[C@H](CCCCN)NC(=O)[C@@H]2CCCN2C(=O)[C@@H](Cc2ccc(O)cc2)NC(=O)[C@H](CCCCN)NC(=O)[C@H](C(C)C)NC(=O)[C@H](CC(C)C)NC(=O)[C@H](CCCCN)NC(=O)[C@H](C(C)C)NC(=O)[C@@H]2CCCN2C(=O)[C@@H](Cc2ccc(O)cc2)NC(=O)[C@H](CC(C)C)NC(=O)[C@H](CCCCN)NC(=O)[C@H](C(C)C)NC(=O)[C@H](CCCCN)NC1=O (cyclo(VKLVK[dY]PKLKVKL[dY]P)) , which is 8

---

Assay: Therapeutic index, ratio of hemolytic activity in human RBC to MIC for Enterobacter cloacae
Settings: human red blood cells (RBC), read-out: TI
Square brackets hold non-standard residues; d marks the D form. Peptide text beside a SMILES is read from it. Orn = NCCC[C@H](N)C(=O)O
Readout Type: selectivity ratio
Please reply with the number alone, leaving off any unit.

compound="CC(C)C[C@@H]1NC(=O)[C@H](CCCN)NC(=O)[C@H](C(C)C)NC(=O)[C@@H]2CCCN2C(=O)[C@@H](Cc2ccccc2)NC(=O)[C@H](CC(C)C)NC(=O)[C@H](CCCN)NC(=O)[C@H](C(C)C)NC(=O)[C@@H]2CCCN2C(=O)[C@@H](Cc2ccccc2)NC1=O [GRAMICIDIN S] (cyclo(L[dF]PV[Orn]L[dF]PV[Orn]))" readout_type="selectivity ratio" endpoint_value=3

Kindly note the recorded selectivity ratio for CC(C)C[C@@H]1NC(=O)[C@H](CCCCN)NC(=O)[C@H](C(C)C)NC(=O)[C@@H]2CCCN2C(=O)[C@@H](Cc2ccc(O)cc2)NC(=O)[C@H](CC(C)C)NC(=O)[C@H](CCCCN)NC(=O)[C@H](C(C)C)NC(=O)[C@H](CCCCN)NC(=O)[C@H](CC(C)C)NC(=O)[C@H](CCCCN)NC(=O)[C@@H]2CCCN2C(=O)[C@@H](Cc2ccc(O)cc2)NC(=O)[C@H](C(C)C)NC(=O)[C@H](CCCCN)NC1=O (cyclo(VKLKV[dY]PKLKVKL[dY]P)) , which is 2

Kindly note the recorded selectivity ratio for CC(C)C[C@@H]1NC(=O)[C@H](CCCCN)NC(=O)[C@H](C(C)C)NC(=O)[C@@H]2CCCN2C(=O)[C@@H](Cc2ccc(O)cc2)NC(=O)[C@H](CC(C)C)NC(=O)[C@H](CCCCN)NC(=O)[C@H](C(C)C)NC(=O)[C@H](CCCCN)NC(=O)[C@H](CC(C)C)NC(=O)[C@@H]2CCCN2C(=O)[C@@H](Cc2ccc(O)cc2)NC(=O)[C@H](CCCCN)NC1=O (cyclo(VKLK[dY]PLKVKL[dY]P)) , which is 4

---

System: Streptococcus mitis
Assay: Antimicrobial activity against Streptococcus mitis after 24 hrs by standard microtiter dilution method
Assay type: functional
Square brackets hold non-standard residues; d marks the D form. Peptide text beside a SMILES is read from it.
Readout Type: MIC (µg/mL)
// units = µg/mL; emit number, no label

compound="CC(C)C[C@@H]1NC(=O)[C@H](CCCCN)NC(=O)[C@H](C(C)C)NC(=O)[C@H](CCCCN)NC(=O)[C@@H]2CCCN2C(=O)[C@@H](Cc2ccc(O)cc2)NC(=O)[C@H](CCCCN)NC(=O)[C@H](CCCCN)NC(=O)[C@H](C(C)C)NC(=O)[C@@H]2CCCN2C(=O)[C@@H](Cc2ccc(O)cc2)NC1=O (cyclo(VKK[dY]PKVKL[dY]P))" readout_type=MIC endpoint_value=64

Now turn to the next compound.
Kindly note the recorded MIC for CC(C)C[C@@H]1NC(=O)[C@H](CCCCN)NC(=O)[C@H](C(C)C)NC(=O)[C@@H]2CCCN2C(=O)[C@@H](Cc2ccc(O)cc2)NC(=O)[C@H](CC(C)C)NC(=O)[C@H](CCCCN)NC(=O)[C@H](C(C)C)NC(=O)[C@H](CCCCN)NC(=O)[C@H](CC(C)C)NC(=O)[C@@H]2CCCN2C(=O)[C@@H](Cc2ccc(O)cc2)NC(=O)[C@H](CCCCN)NC1=O (cyclo(VKLK[dY]PLKVKL[dY]P)) , which is 0.5
